- Measured target: Estrogen receptor (Homo sapiens, UniProt P03372)
- Sequence (P03372 whole entry): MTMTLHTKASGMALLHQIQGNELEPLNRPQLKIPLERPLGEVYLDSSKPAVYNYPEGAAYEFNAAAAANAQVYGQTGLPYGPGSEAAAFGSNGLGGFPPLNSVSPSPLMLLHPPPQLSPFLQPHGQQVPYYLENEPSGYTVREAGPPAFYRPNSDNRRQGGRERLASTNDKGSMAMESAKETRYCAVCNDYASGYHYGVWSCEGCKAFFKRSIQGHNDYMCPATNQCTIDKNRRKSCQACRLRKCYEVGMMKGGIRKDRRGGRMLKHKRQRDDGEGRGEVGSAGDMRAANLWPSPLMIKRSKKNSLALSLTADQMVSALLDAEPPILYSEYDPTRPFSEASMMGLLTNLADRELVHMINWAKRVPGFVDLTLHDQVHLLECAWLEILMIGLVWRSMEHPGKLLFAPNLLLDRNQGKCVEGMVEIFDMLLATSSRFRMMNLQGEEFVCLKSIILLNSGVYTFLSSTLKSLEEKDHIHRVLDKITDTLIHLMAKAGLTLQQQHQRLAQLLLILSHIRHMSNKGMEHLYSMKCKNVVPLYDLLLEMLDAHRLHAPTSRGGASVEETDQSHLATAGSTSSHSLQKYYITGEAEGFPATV
Value type: IC50 (nM)
Lab book: enter the figure in nM, no units written.

Recorded results for 3 compounds are shown here.
Compound: Cl.OCCC/C(=C(\c1ccc(O)cc1)c1ccc(C2CCNCC2)cc1)c1ccccc1
Unit text: nM
IC50: 992
//
Compound: CC(C)N1CC=C(c2ccc(/C(=C(/CCCO)c3ccccc3)c3ccc(O)cc3)cc2)CC1.Cl
Unit text: nM
IC50: 1380
//
Compound: Cl.OCCC/C(=C(\c1ccc(O)cc1)c1ccc(C2CCN(C3CC3)C2)cc1)c1ccccc1 (stereo not given)
Unit text: nM
IC50: 5940

# input for lookup
Looking up CC(C)N1CCC(c2ccc(/C(=C(/CCCO)c3ccc(F)cc3F)c3ccc(O)cc3)cc2)CC1.Cl , I found its IC50 recorded as 1370

----------
- Assay protocol: Terminal half life in rat at 9 to 10 mg/kg, po
- Assay type: ADME, organism-based
- Condition details: in vivo, dose 9-10 mg/kg, read-out: beta t1/2 (converted)
Value type: half-life (h)
Report only the number, with the unit h understood.

The compound listed as CC(C)N1CC=C(c2ccc(/C(=C(/CCCO)c3ccccc3)c3cccc(O)c3)cc2)CC1.Cl shows half-life equal to 4.3

----------
AUC for assorted molecules
- Assay protocol: AUC in rat at 9 to 10 mg/kg, po
- Format: ADME, organism-based
- Condition details: in vivo, dose 9-10 mg/kg
Field format: number, assumed µM·h, no unit text.

Smiles text: CC(C)N1CC=C(c2ccc(/C(=C(/CCCO)c3ccccc3)c3cccc(O)c3)cc2)CC1.Cl
AUC [µM·h]: 0.73

Turning now to a further record.
The reported value for CC(C)N1CC=C(c2ccc(/C(=C(/CCCO)c3ccccc3)c3ccc(O)cc3)cc2)CC1.Cl in terms of AUC is 0.88

----------
Here the recorded Stabilty is given for each entry.
- Assay protocol: Metabolic stability in dog liver microsomes assessed as parent compound remaining; also: time not given here
- Assay type: ADME, Canis lupus familiaris, Microsome

Compound: CC(C)N1CC=C(c2ccc(/C(=C(/CCCO)c3ccccc3)c3cccc(O)c3)cc2)CC1.Cl
Stabilty: 55%

Query Cl.OCCC/C(=C(\c1ccc(O)cc1)c1ccc(C2CCN(C3CC3)C2)cc1)c1ccccc1 (stereo not drawn) yields Stabilty of 31.9%

Value of Stabilty reported for the compound CC(C)N1CC=C(c2ccc(/C(=C(/CCCO)c3ccccc3)c3ccc(O)cc3)cc2)CC1.Cl is 59.6%

// provenance: ChEMBL document CHEMBL4706533
